Values were extracted from patent US20250170248A1.

target: SMARCA2 (Homo sapiens, UniProt P51531); assay: MSD SMARCA2 degradation in A549 cell line; format: cell-based; settings: A549, A549 cells, 24 h
Sequence (P51531 whole entry): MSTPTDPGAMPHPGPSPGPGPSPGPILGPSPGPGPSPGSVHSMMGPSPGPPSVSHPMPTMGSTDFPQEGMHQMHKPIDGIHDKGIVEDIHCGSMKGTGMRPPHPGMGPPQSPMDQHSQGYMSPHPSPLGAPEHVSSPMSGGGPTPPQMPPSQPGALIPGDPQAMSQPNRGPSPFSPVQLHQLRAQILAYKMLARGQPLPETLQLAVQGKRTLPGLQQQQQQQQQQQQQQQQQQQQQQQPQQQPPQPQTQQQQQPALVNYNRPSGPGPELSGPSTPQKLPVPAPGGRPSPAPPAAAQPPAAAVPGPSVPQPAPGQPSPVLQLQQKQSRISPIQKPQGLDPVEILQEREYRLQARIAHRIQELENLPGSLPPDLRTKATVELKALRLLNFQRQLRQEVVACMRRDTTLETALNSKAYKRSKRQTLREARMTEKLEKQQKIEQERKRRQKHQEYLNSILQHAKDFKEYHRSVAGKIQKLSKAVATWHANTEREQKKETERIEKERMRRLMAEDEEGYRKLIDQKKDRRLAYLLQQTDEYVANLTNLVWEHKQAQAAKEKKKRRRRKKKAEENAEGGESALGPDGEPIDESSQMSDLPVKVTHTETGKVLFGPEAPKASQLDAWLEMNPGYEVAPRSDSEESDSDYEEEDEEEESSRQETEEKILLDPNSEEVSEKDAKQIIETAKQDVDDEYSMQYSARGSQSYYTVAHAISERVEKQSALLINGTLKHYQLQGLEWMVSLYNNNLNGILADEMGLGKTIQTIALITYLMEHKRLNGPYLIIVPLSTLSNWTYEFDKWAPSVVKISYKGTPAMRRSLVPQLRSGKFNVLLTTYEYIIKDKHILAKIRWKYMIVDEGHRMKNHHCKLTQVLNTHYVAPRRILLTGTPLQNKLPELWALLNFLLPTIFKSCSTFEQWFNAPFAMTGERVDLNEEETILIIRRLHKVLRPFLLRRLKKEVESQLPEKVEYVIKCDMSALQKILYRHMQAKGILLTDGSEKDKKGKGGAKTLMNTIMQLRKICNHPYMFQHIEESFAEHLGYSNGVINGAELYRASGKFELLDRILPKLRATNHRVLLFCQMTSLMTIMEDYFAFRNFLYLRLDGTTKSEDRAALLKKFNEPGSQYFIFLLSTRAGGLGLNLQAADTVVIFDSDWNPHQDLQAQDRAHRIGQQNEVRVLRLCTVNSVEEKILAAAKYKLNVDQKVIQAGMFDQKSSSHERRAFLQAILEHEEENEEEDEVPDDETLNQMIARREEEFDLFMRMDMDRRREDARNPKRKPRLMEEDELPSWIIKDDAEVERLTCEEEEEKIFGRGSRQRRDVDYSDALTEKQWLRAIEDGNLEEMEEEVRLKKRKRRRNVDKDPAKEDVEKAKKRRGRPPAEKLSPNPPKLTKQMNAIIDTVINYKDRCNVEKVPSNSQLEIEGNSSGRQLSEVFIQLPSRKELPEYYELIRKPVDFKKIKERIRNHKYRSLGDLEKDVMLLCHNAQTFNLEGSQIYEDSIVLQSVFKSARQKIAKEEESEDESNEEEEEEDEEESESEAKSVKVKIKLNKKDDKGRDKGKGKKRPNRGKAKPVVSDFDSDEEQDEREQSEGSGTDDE
Measured Dmax accompanies every entry in the list below.

{"COMPOUND": "Cc1ncsc1-c1ccc(CNC(=O)[C@@H]2C[C@@H](O)CN2C(=O)C(c2cc(N3CC4(CC(N5CCC(c6cnc(N7CCc8[nH]c9nnc(-c%10ccccc%10O)cc9c8[C@@H]7C)nc6)CC5)C4)C3)no2)C(C)C)cc1 (stereo partly shown) [I-11]", "Dmax": "> 90%"}
{"COMPOUND": "C#Cc1ccc(CNC(=O)[C@@H]2C[C@@H](O)CN2C(=O)[C@@H](NC(=O)[C@H]2CC3(C2)C[C@H](c2cnc(N4CCC(N5CCN6c7cc(-c8ccccc8O)nnc7NC[C@H]6C5)CC4)nc2)C3)C(C)(C)C)cc1 (single isomer, unassigned) [I-301]", "Dmax": "> 90%"}
{"COMPOUND": "C#Cc1ccc(CNC(=O)[C@@H]2C[C@@H](O)CN2C(=O)[C@@H](NC(=O)c2ccc(N3CCC(N4CCC(N5CCN6c7cc(-c8ccccc8O)nnc7NC[C@H]6C5)CC4)CC3)cn2)C(C)(C)C)cc1 [I-292]", "Dmax": "> 90%"}
{"COMPOUND": "C#Cc1ccc(CNC(=O)[C@@H]2C[C@@H](O)CN2C(=O)[C@H](NC(=O)[C@H]2CCC3(CC2)C[C@H](N2CCN(c4cnc(N5CCN6c7cc(-c8ccccc8O)nnc7NC[C@H]6C5)nc4)CC2)C3)C(C)(C)CCO)c(Cl)c1 (single isomer, unassigned) [I-306]", "Dmax": "< 50%"}
